PBM binding z-score overview
- Test system: RARa homodimer (NR concentration 270 nM)
- Experimental Details: PBM binding z-score (relative to random genomic background probes); higher = stronger binding; sequences stand for … in GC…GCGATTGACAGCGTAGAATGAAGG
Readout Type: PBM binding z-score

# Biosequence, Reported Measurement
measured = [
    ("TCTCGGAGGACACGAAAGGTCATAGCTCGACATC", 1.62),
    ("TCTATTAGTGGAAGGGCAACCGACGAGTCCGTTT", 0.46),
    ("TTACCAAGGTGAGCTGAGGTCGTTAATCCAACTC", -0.951),
]

====

- Test system: PPARa:RXRa (NR concentration 270 nM, RXRa partner concentration 90 nM)
- Experimental Details: PBM binding z-score (relative to random genomic background probes); higher = stronger binding; sequences stand for … in GC…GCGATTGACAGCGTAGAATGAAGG
Decision: PBM binding z-score compared against 5; not below it gives Satisfied, below it gives Not satisfied.

# Biosequence, Tested Target, Assigned Label
data = [
    ("CAAACTAGGTCATTGACAGGACAGTGAATAGTAA", "PPARa:RXRa (NR concentration 270 nM, RXRa partner concentration 90 nM)", "Not satisfied"),
    ("ACTATTAGTTGACTTACGGCAACCGATACGACGC", "PPARa:RXRa (NR concentration 270 nM, RXRa partner concentration 90 nM)", "Not satisfied"),
    ("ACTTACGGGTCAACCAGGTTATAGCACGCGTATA", "PPARa:RXRa (NR concentration 270 nM, RXRa partner concentration 90 nM)", "Satisfied"),
    ("CATACAGGGTCAGCTAGGCCAGGGTAGGGACGGC", "PPARa:RXRa (NR concentration 270 nM, RXRa partner concentration 90 nM)", "Not satisfied"),
    ("AGAATGAGGTTATACGTAGATCAGGCAAGAAAGT", "PPARa:RXRa (NR concentration 270 nM, RXRa partner concentration 90 nM)", "Not satisfied"),
    ("CCCACTGGGCCAAAGGTCATTGATTCCAATGCTC", "PPARa:RXRa (NR concentration 270 nM, RXRa partner concentration 90 nM)", "Satisfied"),
    ("AGTCAAAGATCACTAGGTAACGTAAGATTCAGCT", "PPARa:RXRa (NR concentration 270 nM, RXRa partner concentration 90 nM)", "Not satisfied"),
    ("CATACAGTGTCAGCTAGGCCAGAGTAGGGACGGC", "PPARa:RXRa (NR concentration 270 nM, RXRa partner concentration 90 nM)", "Not satisfied"),
    ("CGTCAAGGTTCAAGGTAACGTAACAGAAAGCAGC", "PPARa:RXRa (NR concentration 270 nM, RXRa partner concentration 90 nM)", "Not satisfied"),
]
